Cited source for all entries: the supplement of paper PMC12764529

RUN_DESCRIPTION: folding stability dG unfold from trypsin proteolysis; higher = more stable
Outcome: met for folding stability dG unfold of at least 1 kcal/mol; not met for anything lower.

Completed entries (count: 6):
stdin: Tell me whether folding stability dG unfold is at least 1 kcal/mol here: SAGGMLTLEEIKKAKPGEKLEIEVDGKIYLVEIKKNENGELTLTVKKVDKETGEIVEEKTISLEELLSAGGS [r16_763_TrROS_Hall]
stdout: met

stdin: Tell me whether folding stability dG unfold is at least 1 kcal/mol here: SAGMDPNEKREVVVELEFEVPDPSNPEGGSVPIRVTLKATGKGTEEEAEELKKKAEEEAREKVEKGELLSAG [r5_532_JUSTAS]
stdout: not met

stdin: Tell me whether folding stability dG unfold is at least 1 kcal/mol here: SFKLPPGQEIKVKIFILFVDPGDGRMYFIKIEYEITIKPDDDGNLDLDIEPTNIEVVGPMPADEAKEFFKSA [r9_423_TrROS]
stdout: met

stdin: Tell me whether folding stability dG unfold is at least 1 kcal/mol here: SMNIISIDIEPYRTGGEPWIYIPIQVPDENMPPSELEEIVEEIFEKLGLPINVKVHRDPNSGTIWIMIRLSA [r9_717_TrROS]
stdout: met

stdin: Tell me whether folding stability dG unfold is at least 1 kcal/mol here: SAGGSAMTITEDGTLTLEIKVPEDAPEATVKVTVLTDGKTLGEADPATGKVTLKVPPDVEVKVEVASAGGSA [r15_180_TrMRF]
stdout: met

stdin: Tell me whether folding stability dG unfold is at least 1 kcal/mol here: SAGGSAGGGTVLAEEEEPETGLVRRLVRLPDGTLVESVSLVDPETGEVLSEEVLRETPLPPPGLSAGGSAGG [r6_928_JUSTAS]
stdout: not met

Turning now to a further sequence:
stdin: Tell me whether folding stability dG unfold is at least 1 kcal/mol here: SMTVVIDIPPEVPVPGSGSVRPVPVEEVLKRVEEAMAKGKKVVVTGRDPKHPLVQEVAARLEELGVEVVGSA [r9_468_JUSTAS]
stdout: not met
